molecular target: HDAC2 (Homo sapiens, UniProt Q92769); construct: HDAC2 (full length, C-terminal His tag, BPS Bioscience, cat. #: 50002); purchased BPS Bioscience 50002; test: Recombinant HDAC µSPOT microarray binding assay;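 further: Cellulose-bound peptide spots on slides incubated with six HDAC enzyme concentrations, binding intensity read, four-parameter variable-slope fit, EC50 is enzyme concentration giving half-maximal binding, in HEPES buffer pH 7.4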;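 further: relative spot intensity from the six enzyme-concentration slides imaged together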; details: HDAC2 microarray dose-response curve fit, top plateau; X = Asuha; sheet Fig. 3 HDAC2
Sequence (Q92769 whole entry): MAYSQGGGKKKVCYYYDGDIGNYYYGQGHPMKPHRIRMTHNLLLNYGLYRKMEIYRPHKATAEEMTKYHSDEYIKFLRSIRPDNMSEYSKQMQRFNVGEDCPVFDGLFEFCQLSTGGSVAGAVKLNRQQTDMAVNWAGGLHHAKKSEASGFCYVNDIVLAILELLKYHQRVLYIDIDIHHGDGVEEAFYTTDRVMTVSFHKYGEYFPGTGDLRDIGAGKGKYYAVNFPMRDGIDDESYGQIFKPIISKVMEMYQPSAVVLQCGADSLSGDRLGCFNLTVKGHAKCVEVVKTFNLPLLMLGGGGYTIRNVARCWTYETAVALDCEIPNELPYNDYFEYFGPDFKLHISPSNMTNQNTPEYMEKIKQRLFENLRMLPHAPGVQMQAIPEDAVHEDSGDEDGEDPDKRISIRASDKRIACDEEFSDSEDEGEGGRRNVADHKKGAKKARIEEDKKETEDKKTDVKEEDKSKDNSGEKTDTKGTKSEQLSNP
For each entry below, report its Top (Value) value.
Form field (numeric): enter value without unit.

IN: Lab note: need Top (Value) for H2B 58-73 (AMGIMNSFVNDIFERI; UniProt P06899 59-74, looked up, fragment) on HDAC2 (Homo sapiens, UniProt Q92769), anyone have it?
OUT: 0.16

IN: Lab note: need Top (Value) for H2A 16-31 (TRSSRAGLQFPVGRVH; microarray-immobilized; UniProt P0C0S8 17-32, looked up, fragment) on HDAC2 (Homo sapiens, UniProt Q92769), anyone have it?
OUT: 3.35

IN: Lab note: need Top (Value) for H2A 100-115 (VTIAQGGVLPNIQAVL; UniProt P0C0S8 101-116, looked up, fragment) on HDAC2 (Homo sapiens, UniProt Q92769), anyone have it?
OUT: 9.23

IN: Lab note: need Top (Value) for H2B 64-79 (SFVNDIFERIAGEASR; UniProt P62807 65-80, looked up, fragment) on HDAC2 (Homo sapiens, UniProt Q92769), anyone have it?
OUT: 12.73

IN: Lab note: need Top (Value) for H2B 67-82 (NDIFERIAGEASRLAH; UniProt P06899 68-83, looked up, fragment) on HDAC2 (Homo sapiens, UniProt Q92769), anyone have it?
OUT: 6.33

IN: Lab note: need Top (Value) for H2A 46-61 (GAPVYLAAVLEYLTAE; UniProt P0C0S8 47-62, looked up, fragment) on HDAC2 (Homo sapiens, UniProt Q92769), anyone have it?
OUT: 27.24

IN: Lab note: need Top (Value) for H2A 49-64 (VYLAAVLEYLTAEILE; UniProt P0C0S8 50-65, looked up, fragment) on HDAC2 (Homo sapiens, UniProt Q92769), anyone have it?
OUT: 0.44

IN: Lab note: need Top (Value) for H2A 19-34 (SRAGLQFPVGRVHRLL; UniProt P04908 20-35, looked up, fragment) on HDAC2 (Homo sapiens, UniProt Q92769), anyone have it?
OUT: 76.12

IN: Lab note: need Top (Value) for H2A 37-52 (GNYSERVGAGAPVYLA; UniProt P04908 38-53, looked up, fragment) on HDAC2 (Homo sapiens, UniProt Q92769), anyone have it?
OUT: 3.9

IN: Lab note: need Top (Value) for H2B 61-76 (IMNSFVNDIFERIAGE; UniProt P62807 62-77, looked up, fragment) on HDAC2 (Homo sapiens, UniProt Q92769), anyone have it?
OUT: 0.12

IN: Lab note: need Top (Value) for H2B 91-106 (SREIQTAVRLLLPGEL; UniProt P62807 92-107, looked up, fragment) on HDAC2 (Homo sapiens, UniProt Q92769), anyone have it?
OUT: 44.03

IN: Lab note: need Top (Value) for H2A 79-94 (IPRHLQLAIRNDEELN; UniProt P0C0S8 80-95, looked up, fragment) on HDAC2 (Homo sapiens, UniProt Q92769), anyone have it?
OUT: 40.23

IN: Lab note: need Top (Value) for H2A 55-70 (LEYLTAEILELAGNAA; UniProt P0C0S8 56-71, looked up, fragment) on HDAC2 (Homo sapiens, UniProt Q92769), anyone have it?
OUT: 2.34

IN: Lab note: need Top (Value) for H2A 40-55 (AERVGAGAPVYLAAVL; UniProt P0C0S8 41-56, looked up, fragment) on HDAC2 (Homo sapiens, UniProt Q92769), anyone have it?
OUT: 0.06
